molecular target: human FPR2 (Homo sapiens); assay: FPR2 cyclic adenosine monophosphate (cAMP) assay; conditions: CHO cells overexpressing human FPR2; inhibition of forskolin-stimulated cAMP production; read-out: hFPR2 cAMP2 EC50
reportedProperty: EC50 (nM)
Just the number please, in nM, no unit attached.

Below, each entry is followed by its recorded EC50 result.
>>> quantitativeresult("COc1cc(F)c([C@@H]2CNC(=O)[C@H]2NC(=O)NC2(c3nc4c(C(F)(F)F)cccc4s3)CC2)c(F)c1 [Example 96]")
2
>>> quantitativeresult("CCCN1C[C@@H](c2c(F)cc(OC)cc2F)[C@H](NC(=O)NC2(c3ccc4ccccc4n3)CC2)C1=O [Example 95]")
1.7
>>> quantitativeresult("COc1cc(F)c([C@@H]2CN(C)C(=O)[C@H]2NC(=O)NC2(c3ccc4ccccc4n3)CC2)c(F)c1 [Example 8]")
5.7
>>> quantitativeresult("COc1ccc([C@@H]2CNC(=O)[C@H]2NC(=O)NC2(c3cccc(Cl)n3)CC2)c(F)c1 [Example 48]")
9.7

Prompt: Report EC50, nothing else, for this compound: COc1cc(F)c([C@@H]2CN(CCO)C(=O)[C@H]2NC(=O)NC2(c3ccc4ccccc4n3)CC2)c(F)c1 [Example 67]
Response: 63

----------
Target: human FPR2 (Homo sapiens, UniProt P25090)
Sequence (P25090 1-351): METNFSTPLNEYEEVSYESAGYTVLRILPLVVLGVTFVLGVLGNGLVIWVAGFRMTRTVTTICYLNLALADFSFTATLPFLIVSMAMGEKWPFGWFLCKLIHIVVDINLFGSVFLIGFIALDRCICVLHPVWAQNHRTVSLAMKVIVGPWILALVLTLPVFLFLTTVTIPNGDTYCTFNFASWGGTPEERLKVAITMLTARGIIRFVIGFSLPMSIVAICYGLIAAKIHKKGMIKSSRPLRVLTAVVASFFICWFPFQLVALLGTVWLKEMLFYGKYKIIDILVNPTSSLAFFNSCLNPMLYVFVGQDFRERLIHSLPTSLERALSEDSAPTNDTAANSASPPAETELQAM
Test: FPR2 cyclic adenosine monophosphate (cAMP) assay
Assay type: cell-based
Conditions: CHO cells overexpressing human FPR2; inhibition of forskolin-stimulated cAMP production; read-out: hFPR2 cAMP2 EC50
reportedProperty: log10 EC50 (log10 of the value in nM)
Parameter value (number): base-10 log of EC50 in nM.

Below, each entry is followed by its recorded log10 EC50 result.
>>> quantitativeresult("COc1cc(F)c([C@@H]2CNC(=O)[C@H]2NC(=O)NC2(c3ccc(Cl)c(C)n3)CC2)c(F)c1 [Example 47]")
0.36
>>> quantitativeresult("COc1cc(F)c([C@@H]2CNC(=O)[C@H]2NC(=O)NC2(c3ccc(C)cc3)CC2)c(F)c1 [Example 2]")
1.52

Prompt: Report log10 EC50, nothing else, for this compound: COc1cc(F)c([C@@H]2CNC(=O)[C@H]2NC(=O)NC2(c3cccc(OCc4ccc5ccccc5c4)c3)CC2)c(F)c1 [Example 131]
Response: 0.60

Prompt: Report log10 EC50, nothing else, for this compound: COc1cc(F)c([C@@H]2CNC(=O)[C@H]2NC(=O)NC2(c3ccc4cc(Cl)ccc4n3)CC2)c(F)c1 [Example 53]
Response: 1.08

Prompt: Report log10 EC50, nothing else, for this compound: COc1cc(F)c([C@@H]2CNC(=O)[C@H]2NC(=O)NC2(c3cccc(C(F)(F)F)c3)CC2)c(F)c1 [Example 19]
Response: 1.69

Prompt: Report log10 EC50, nothing else, for this compound: COc1cc(F)c([C@@H]2CNC(=O)[C@H]2NC(=O)NC2(c3cccc(Cl)n3)CC2)c(F)c1 [Example 1]
Response: 0.92

Prompt: Report log10 EC50, nothing else, for this compound: COc1cc(F)c([C@@H]2CN(CC3CC3)C(=O)[C@H]2NC(=O)NC2(c3cccc(C)n3)CC2)c(F)c1 [Example 94]
Response: 0.18
